- SUBJECT_OF_TEST: human metabotropic glutamate receptor mGluR3 (Homo sapiens (Human), UniProt Q14832)
- Sequence (Q14832 23-879): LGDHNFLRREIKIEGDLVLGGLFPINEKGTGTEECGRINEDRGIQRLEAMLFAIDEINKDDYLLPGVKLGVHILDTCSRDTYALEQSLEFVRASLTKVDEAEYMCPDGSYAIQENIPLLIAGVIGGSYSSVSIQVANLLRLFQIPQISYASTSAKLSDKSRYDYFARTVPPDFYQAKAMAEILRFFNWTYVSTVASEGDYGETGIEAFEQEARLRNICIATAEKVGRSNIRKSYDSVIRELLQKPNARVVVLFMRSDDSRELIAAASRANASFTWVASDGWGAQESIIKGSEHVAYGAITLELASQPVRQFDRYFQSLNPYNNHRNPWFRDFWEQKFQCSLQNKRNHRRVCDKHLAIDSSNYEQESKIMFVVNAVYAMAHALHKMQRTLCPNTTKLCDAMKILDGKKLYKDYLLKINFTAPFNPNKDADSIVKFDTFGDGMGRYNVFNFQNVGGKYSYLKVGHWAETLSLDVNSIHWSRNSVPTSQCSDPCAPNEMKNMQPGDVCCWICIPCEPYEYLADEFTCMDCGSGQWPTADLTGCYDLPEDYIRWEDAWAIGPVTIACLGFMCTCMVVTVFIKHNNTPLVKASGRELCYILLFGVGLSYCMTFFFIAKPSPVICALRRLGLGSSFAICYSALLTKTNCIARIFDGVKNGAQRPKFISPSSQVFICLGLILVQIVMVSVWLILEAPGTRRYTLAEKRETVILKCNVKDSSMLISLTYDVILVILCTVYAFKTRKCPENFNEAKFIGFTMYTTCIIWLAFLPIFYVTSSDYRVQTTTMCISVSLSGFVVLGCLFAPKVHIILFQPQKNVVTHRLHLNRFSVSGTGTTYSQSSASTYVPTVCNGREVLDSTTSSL
- TEST_NAME: [35S]GTPγS binding test, mGluR3
- EXPERIMENTAL_SETUP: inhibition of glutamate (1 μM)-stimulated [35S]GTPγS specific binding, CHO cell membranes
PROPERTY_LABEL: IC50 (nM)

CC(C)CCO[C@@H]1C[C@@H]2[C@H]([C@]1(N)C(=O)O)[C@@]2(F)C(=O)O
173
Cc1ccc(CO[C@@H]2C[C@@H]3[C@H]([C@]2(N)C(=O)O)[C@@]3(F)C(=O)O)cc1
54.4
CCCO[C@@H]1C[C@@H]2[C@H]([C@]1(N)C(=O)O)[C@@]2(F)C(=O)O
321
COc1cc([C@@H](C)O[C@@H]2C[C@@H]3[C@H]([C@]2(N)C(=O)O)[C@@]3(F)C(=O)O)ccc1F
5.04
N[C@]1(C(=O)O)[C@H]2[C@@H](C[C@H]1OCc1ccc(F)c(F)c1)[C@@H]2C(=O)O
15.2

[A] N[C@]1(C(=O)O)[C@H]2[C@@H](C[C@H]1OCc1ccc(Cl)cn1)[C@]2(F)C(=O)O
[B] N[C@]1(C(=O)O)[C@H]2[C@@H](C[C@H]1OCc1cccc(Cl)n1)[C@]2(F)C(=O)O
[C] N[C@]1(C(=O)O)[C@H]2[C@@H](C[C@H]1OC1CCCC1)[C@]2(F)C(=O)O
[D] N[C@]1(C(=O)O)[C@H]2[C@@H](C[C@H]1OCc1ccc(F)cc1)[C@@H]2C(=O)O
Prompt: Sort (4 molecules) by IC50: min first. Put the labels in the requested order and write them down.
Completion: A, B, D, C

====

- TEST_NAME: Stability test in solution (pH 1.2 and pH 6.5)
- Format: physicochemical
- EXPERIMENTAL_SETUP: 20 mM phosphate buffer pH 6.5, 37° C., 1 hour
PROPERTY_LABEL: Compound's percent residue (%) pH 6.5

CC(OC(=O)O[C@H]1C[C@@H](C)CC[C@@H]1C(C)C)OC(=O)[C@@]1(N)[C@H]2[C@@H](C[C@H]1OCc1ccc(F)cc1)[C@]2(F)C(=O)O (stereo partly drawn)
93
CC(C)[C@@H]1CC[C@@H](C)C[C@H]1OC(=O)O[C@@H](C)OC(=O)[C@@]1(N)[C@H]2[C@@H](C[C@H]1OCc1ccc(F)cc1)[C@]2(F)C(=O)O
104
C[C@@H](OC(=O)C12CC3CC(CC(C3)C1)C2)OC(=O)[C@@]1(N)[C@H]2[C@@H](C[C@H]1OCc1ccc(F)c(F)c1)[C@]2(F)C(=O)O
95
C[C@@H](OC(=O)C12CC3CC(CC(C3)C1)C2)OC(=O)[C@@]1(N)[C@H]2[C@@H](C[C@H]1OCc1cccc(F)c1)[C@]2(F)C(=O)O
100
CC(C)CCO[C@@H]1C[C@@H]2[C@H]([C@]1(N)C(=O)O[C@@H](C)OC(=O)C13CC4CC(CC(C4)C1)C3)[C@@]2(F)C(=O)O
103
C[C@@H](OC(=O)C12CC3CC(CC(C3)C1)C2)OC(=O)[C@@]1(N)[C@H]2[C@@H](C[C@H]1OCc1ccc(F)cc1)[C@]2(F)C(=O)O
98

====

- SUBJECT_OF_TEST: human metabotropic glutamate receptor mGluR2 (Homo sapiens (Human), UniProt Q14416)
- Sequence (Q14416 19-872): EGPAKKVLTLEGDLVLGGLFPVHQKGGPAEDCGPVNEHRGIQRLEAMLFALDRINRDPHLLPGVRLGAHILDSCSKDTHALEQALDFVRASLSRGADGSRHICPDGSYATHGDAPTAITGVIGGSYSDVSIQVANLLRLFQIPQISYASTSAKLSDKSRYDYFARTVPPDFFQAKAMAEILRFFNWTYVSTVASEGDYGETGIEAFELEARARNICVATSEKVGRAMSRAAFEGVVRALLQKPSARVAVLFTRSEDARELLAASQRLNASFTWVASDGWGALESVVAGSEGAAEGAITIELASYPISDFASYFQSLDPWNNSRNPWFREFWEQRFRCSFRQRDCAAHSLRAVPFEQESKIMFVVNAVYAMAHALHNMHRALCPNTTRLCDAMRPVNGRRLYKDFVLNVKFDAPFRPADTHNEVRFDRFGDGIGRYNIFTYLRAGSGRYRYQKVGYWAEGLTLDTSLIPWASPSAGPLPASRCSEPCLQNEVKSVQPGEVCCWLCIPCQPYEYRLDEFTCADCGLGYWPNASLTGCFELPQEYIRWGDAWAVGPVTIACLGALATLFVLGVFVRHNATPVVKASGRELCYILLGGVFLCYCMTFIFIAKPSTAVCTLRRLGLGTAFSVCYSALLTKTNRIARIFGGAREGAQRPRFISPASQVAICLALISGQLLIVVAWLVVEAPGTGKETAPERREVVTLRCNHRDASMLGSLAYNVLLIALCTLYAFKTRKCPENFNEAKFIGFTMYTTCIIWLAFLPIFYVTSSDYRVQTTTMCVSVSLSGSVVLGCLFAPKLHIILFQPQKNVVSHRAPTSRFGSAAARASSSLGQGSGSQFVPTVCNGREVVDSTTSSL
- TEST_NAME: [35S]GTPγS binding test, mGluR2
- EXPERIMENTAL_SETUP: inhibition of glutamate (20 μM)-stimulated [35S]GTPγS specific binding, CHO cell membranes
PROPERTY_LABEL: IC50 (nM)

Cc1ccc(CO[C@@H]2C[C@@H]3[C@H]([C@]2(N)C(=O)O)[C@@]3(F)C(=O)O)cc1
24.6
N[C@]1(C(=O)O)[C@H]2[C@@H](C[C@H]1OCc1ccc(C(F)(F)F)cc1)[C@]2(F)C(=O)O
23.7
N[C@]1(C(=O)O)[C@H]2[C@@H](C[C@H]1OCc1ccc(F)cc1)[C@]2(F)C(=O)O
36.1
CCCO[C@@H]1C[C@@H]2[C@H]([C@]1(N)C(=O)O)[C@@]2(F)C(=O)O
75.1

[P] N[C@]1(C(=O)O)[C@H]2[C@@H](C[C@H]1OCc1cccc(Cl)n1)[C@]2(F)C(=O)O
[Q] N[C@]1(C(=O)O)[C@H]2[C@@H](C[C@H]1OCc1ccc(F)c(F)c1)[C@@H]2C(=O)O
Prompt: Smaller IC50 value? Options are P and Q Answer = label.
Completion: P
